Attribution: patent US20110312956A1

Target or test system: human A2a adenosine receptor (Homo sapiens)
Construct: purchased PerkinElmer RB-HA2a; host or cells: HEK293 cell plasma membranes
Procedure summary: Ligand binding assay for adenosine A2a receptor ([3H]CGS21680, HEK293 plasma membrane)
Endpoint label: Ki (nM)

- Nc1nc(-c2ccccc2)c2c(n1)-c1cc(CNCc3ccccn3)ccc1C2=O [Compound 2]: 10.2

* * *

Target or test system: human A2a adenosine receptor (Homo sapiens, UniProt P29274)
Construct: purchased PerkinElmer RB-HA2a; host or cells: HEK293 cell plasma membranes
Sequence (P29274 whole entry): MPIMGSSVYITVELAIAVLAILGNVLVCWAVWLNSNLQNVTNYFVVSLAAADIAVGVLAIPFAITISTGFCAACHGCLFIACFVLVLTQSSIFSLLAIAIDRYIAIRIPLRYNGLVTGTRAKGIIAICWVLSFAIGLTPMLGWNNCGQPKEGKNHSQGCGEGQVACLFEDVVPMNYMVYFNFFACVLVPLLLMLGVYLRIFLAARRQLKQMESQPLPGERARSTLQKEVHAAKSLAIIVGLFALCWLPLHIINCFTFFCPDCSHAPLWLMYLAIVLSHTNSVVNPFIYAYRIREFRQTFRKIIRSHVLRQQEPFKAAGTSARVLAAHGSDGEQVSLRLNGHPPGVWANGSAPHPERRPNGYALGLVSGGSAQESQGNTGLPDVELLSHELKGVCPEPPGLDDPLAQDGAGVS
Procedure summary: Ligand binding assay for adenosine A2a receptor ([3H]CGS21680, HEK293 plasma membrane)
Condition details: radioligand [3H]CGS21680; read-out: Ki A2a binding
pKi: −log10 of the molar value.
We begin with a simple list: items and their reported pKi.
Endpoint label: pKi

- Nc1nc(-c2ccccc2)c2c(n1)-c1cc(CN3CCC(O)CC3)ccc1C2=O: 8.24
- Nc1nc(-c2ccccc2)c2c(n1)-c1cc(CN3CCC(=O)CC3)ccc1C2=O: 8.03
- Nc1nc(-c2ccccc2)c2c(n1)-c1cc(CN3CCC(O)C3)ccc1C2=O (centres unmarked): 8.10
- Nc1nc(-c2ccccc2)c2c(n1)-c1cc(CN3CCCC3)ccc1C2=O: 8.17
- Nc1nc(-c2ccccc2)c2c(n1)-c1cc(CN3CCOCC3)ccc1C2=O: 8.27

* * *

Target or test system: hERG (Homo sapiens)
Construct: expressed in transfected cells; host or cells: HEK293 cells, stably transfected; membranes used
Sequence (Q12809 whole entry): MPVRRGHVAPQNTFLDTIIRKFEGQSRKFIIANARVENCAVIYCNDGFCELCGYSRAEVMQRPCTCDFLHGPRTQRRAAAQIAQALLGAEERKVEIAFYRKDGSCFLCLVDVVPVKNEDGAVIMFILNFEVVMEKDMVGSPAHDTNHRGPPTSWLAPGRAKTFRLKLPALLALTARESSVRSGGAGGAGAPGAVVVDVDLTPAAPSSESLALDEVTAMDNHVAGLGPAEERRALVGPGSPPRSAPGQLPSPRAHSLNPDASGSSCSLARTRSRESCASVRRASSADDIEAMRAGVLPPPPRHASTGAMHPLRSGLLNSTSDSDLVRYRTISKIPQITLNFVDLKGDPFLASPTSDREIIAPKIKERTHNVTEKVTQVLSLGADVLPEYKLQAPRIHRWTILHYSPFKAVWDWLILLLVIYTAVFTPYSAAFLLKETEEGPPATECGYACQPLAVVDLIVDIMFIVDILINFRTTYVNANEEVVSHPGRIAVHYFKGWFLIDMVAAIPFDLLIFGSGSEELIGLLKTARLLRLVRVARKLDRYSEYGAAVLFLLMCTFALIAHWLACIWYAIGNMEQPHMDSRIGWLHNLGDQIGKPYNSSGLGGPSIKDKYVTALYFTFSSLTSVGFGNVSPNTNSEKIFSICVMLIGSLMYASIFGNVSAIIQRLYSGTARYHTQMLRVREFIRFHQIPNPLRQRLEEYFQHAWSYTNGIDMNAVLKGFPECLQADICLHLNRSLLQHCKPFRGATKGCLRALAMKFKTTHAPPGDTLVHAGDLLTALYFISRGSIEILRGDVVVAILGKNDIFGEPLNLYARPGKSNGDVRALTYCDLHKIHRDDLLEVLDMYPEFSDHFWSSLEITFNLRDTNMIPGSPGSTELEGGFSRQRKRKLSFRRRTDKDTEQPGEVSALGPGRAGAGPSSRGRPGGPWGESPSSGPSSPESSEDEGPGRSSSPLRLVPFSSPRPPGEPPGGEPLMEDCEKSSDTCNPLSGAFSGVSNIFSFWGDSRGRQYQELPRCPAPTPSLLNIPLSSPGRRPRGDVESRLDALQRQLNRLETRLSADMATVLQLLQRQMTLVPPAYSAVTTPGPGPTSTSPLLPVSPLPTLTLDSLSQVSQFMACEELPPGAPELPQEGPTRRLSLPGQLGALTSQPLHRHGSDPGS
Procedure summary: hERG channel binding assay ([3H]astemizole displacement, HEK293 membranes)
Condition details: probe [3H]astemizole, at 10 μM, read-out: hERG binding (percent inhibition of [3H]astemizole binding)
Endpoint label: inhibition at 1 h, 10 µM (%)

- Nc1nc(-c2ccccc2)c2c(n1)-c1cc(CN3CCC(O)CC3)ccc1C2=O: 26.2
- Nc1nc(-c2ccccc2)c2c(n1)-c1cc(CN3CCC(O)C3)ccc1C2=O (stereo not drawn): 27.8
- Nc1nc(-c2ccccc2)c2c(n1)-c1cc(CN3CCCC3)ccc1C2=O: 1.4
- Nc1nc(-c2ccccc2)c2c(n1)-c1cc(CN3CCC(=O)CC3)ccc1C2=O: 13.8
- Nc1nc(-c2ccccc2)c2c(n1)-c1cc(CNCc3ccccn3)ccc1C2=O: 34.5
- Nc1nc(-c2ccccc2)c2c(n1)-c1cc(CN3CCOCC3)ccc1C2=O: -12.5
